- Test system: OVCAR-5 ovarian
- Run description: NCI tumour cell line growth inhibition, 48 h; in the data active = GI50 below about 0.43 µM; inactive = the rest
Labels: active, inactive

- Molecule: "C#CC#CC#CC#CC#CC#CC#CC#CC[C@@H]1OC[C@H](COC(=O)O[C@@H](C(=O)O[C@H]2C[C@@]3(O)[C@@H](OC(=O)c4ccccc4)[C@@H]4[C@]5(OC(C)=O)CO[C@@H]5C[C@H](O)[C@@]4(C)C(=O)[C@H](OC(C)=O)C(=C2C)C3(C)C)[C@@H](NC(=O)c2ccccc2)c2ccccc2)O1"
  Target system: "OVCAR-5 ovarian"
  Assigned category: "inactive"
- Molecule: "COC(=O)[C@]12CC[C@@H](C)[C@H](C)[C@@H]1C1=CC[C@@H]3[C@@]4(C)C[C@@H](OC(C)=O)[C@H](O)[C@@](C)(CO)[C@@H]4[C@H](O)C[C@@]3(C)[C@]1(C)CC2"
  Target system: "OVCAR-5 ovarian"
  Assigned category: "inactive"
- Molecule: "O=C([CH-]C(=O)C(F)(F)F)c1ccccc1.O=C([CH-]C(=O)C(F)(F)F)c1ccccc1.[O]=[U+2]=[O]"
  Target system: "OVCAR-5 ovarian"
  Assigned category: "inactive"
- Molecule: "Cn1cc(-c2csc(-c3c[nH]c4ccccc34)n2)c2cccnc21"
  Target system: "OVCAR-5 ovarian"
  Assigned category: "inactive"
- Molecule: "O=c1cc(/C=C/c2ccc(O)c(O)c2)cc(/C=C/c2ccc(O)c(O)c2)o1"
  Target system: "OVCAR-5 ovarian"
  Assigned category: "inactive"
- Molecule: "O=S(=O)(Nc1ccc2ccccc2c1)N1CCCCC1"
  Target system: "OVCAR-5 ovarian"
  Assigned category: "inactive"
- Molecule: "Cc1cccc(-n2cnc3cc(C(=O)N4CCCCC4)ccc32)c1"
  Target system: "OVCAR-5 ovarian"
  Assigned category: "inactive"
- Molecule: "O=C1c2ccccc2S(=O)(=O)N1CSC(=S)N1CCOCC1"
  Target system: "OVCAR-5 ovarian"
  Assigned category: "inactive"
- Molecule: "CCCCCCCC/C(=C\\C1=C(C)C(=O)C(OC)=C(OC)C1=O)C(=O)O"
  Target system: "OVCAR-5 ovarian"
  Assigned category: "inactive"
- Molecule: "Cn1cc(C2=C(n3ccc4ccccc43)C(=O)NC2=O)c2ccccc21"
  Target system: "OVCAR-5 ovarian"
  Assigned category: "inactive"
- Molecule: "N=C(N)c1ccc(-c2ccc(-c3ccccc3)s2)s1"
  Target system: "OVCAR-5 ovarian"
  Assigned category: "active"
- Molecule: "O=S(=O)(Nc1cc(F)cc(F)c1)c1ccc(-c2cnc(C3CC3)o2)cc1"
  Target system: "OVCAR-5 ovarian"
  Assigned category: "inactive"
- Molecule: "O=c1[nH]nc(-c2nn(-c3ccc(Cl)cc3)cc2O)o1"
  Target system: "OVCAR-5 ovarian"
  Assigned category: "inactive"
- Molecule: "COc1cc2c(cc1OCCCCCN1CCN(CCCCCOc3cc4c(cc3OC)C(=O)C3CCC[C@H]3C=N4)CC1)N=C[C@@H]1CCCC1C2=O (stereo not given in full)"
  Target system: "OVCAR-5 ovarian"
  Assigned category: "inactive"
- Molecule: "COc1ccc(C2NC(=O)c3cc4c(cc3N2)OCO4)cc1 (stereo not given)"
  Target system: "OVCAR-5 ovarian"
  Assigned category: "inactive"

Source of measurements: PubChem BioAssay (NCI)
